Test system: Saccharomyces cerevisiae
Assay: protein stability index of tFT-peptide fusion (C-terminal peptide) (PSI (0-1 scale)); higher = more stable (slower turnover)
Settings: genetic background: wild type; temperature: 30 C
sequences and their reported protein stability index

Example results:
{"constructSequence": "KDVIEEALSRFG [UTP7 C-terminal 12 aa]", "protein stability index": 0.677}
{"constructSequence": "VKSLQVKKSHLK [CDC12 C-terminal 12 aa]", "protein stability index": 0.742}
{"constructSequence": "GNEPMEKFIQSL [YMR090W C-terminal 12 aa]", "protein stability index": 0.669}
{"constructSequence": "SEPVKQVLDSKE [NMA2 C-terminal 12 aa]", "protein stability index": 0.728}
{"constructSequence": "ESVSYLFTHAPV [PRS2 C-terminal 12 aa]", "protein stability index": 0.711}

Let's switch to this sequence now.
[ask] Return reported protein stability index; argument: AGAAWFFVKLLG [CCC1 C-terminal 12 aa]
[reply] 0.476

Source listed as the supplement of paper PMC10724198.
